The reported measurements were obtained from patent US9409952B2.

Assay: PAMPA (parallel artificial membrane permeability assay)
Format: in vitro ADME
Conditions: PAMPA; membrane permeation rate (Pe); 50 mM MOPSO buffer pH 6.5 with 5.0% glycocholic acid, 37° C., 18 hours; read-out: iPAMPA Pe
Positions of bridges follow the written chain, without caps; N, C: chain ends. Non-standard residues stand in square brackets, D forms with d. Residues, ends and D or L forms follow the SMILES beside them. *: point of attachment. NMeF = CN[C@@H](Cc1ccccc1)C(=O)O; NMeL = CN[C@@H](CC(C)C)C(=O)O; NMeA = CN[C@@H](C)C(=O)O; Piperidide = C1CCN(*)CC1
property_label: Papp at 18 hours, 50 µM (×10⁻⁶ cm/s)
The response must be a number in ×10⁻⁶ cm/s with no trailing unit.

// Papp at 18 hours, 50 µM value for CC[C@H](C)[C@@H]1NC(=O)[C@H](Cc2ccccc2)N(C)C(=O)[C@H]([C@@H](C)O)NC(=O)[C@@H](C)NC(=O)C[C@@H](C(=O)N(C)[C@@H](Cc2ccccc2)C(=O)N[C@@H](C)C(=O)N2CCCCC2)NC(=O)[C@H](CC(C)C)N(C)C(=O)[C@H](CC(C)C)N(C)C(=O)[C@H](Cc2ccccc2)N(C)C(=O)[C@H](CC(C)C)N(C)C(=O)[C@H](C)N(C)C1=O [DP-189] ([dA]T[NMeF]I[NMeA][NMeL][NMeF][NMeL][NMeL]D[NMeF]A-Piperidide; lactam N-10) : 1.4

* * *

This listing pairs molecules with measured Papp at 18 hours, 50 µM.
Assay: PAMPA (parallel artificial membrane permeability assay)
Assay type: in vitro ADME
Details: PAMPA; membrane permeation rate (Pe); 50 mM MOPSO buffer pH 6.5 with 5.0% glycocholic acid, 37° C., 18 hours; read-out: iPAMPA Pe
Starred links: 1 amine or outer side, 2 acyl side, 3 side chain; linkers in the order of their positions; H or OH if unused. Positions of bridges follow the written chain, without caps; N, C: chain ends. Non-standard residues stand in square brackets, D forms with d. Residues, ends and D or L forms follow the SMILES beside them. *: point of attachment. NMeF = CN[C@@H](Cc1ccccc1)C(=O)O; NMeβAla = CN(CCC(=O)[*:2])[*:1]; NMeL = CN[C@@H](CC(C)C)C(=O)O; NMeA = CN[C@@H](C)C(=O)O; Piperidide = C1CCN(*)CC1; Sar = CNCC(=O)O; tBu = CC(C)(C)*
Hi! Could you send only the number? It should be in ×10⁻⁶ cm/s, unit omitted.

Some solved entries appear below for comparison.
molecule: CC(C)C[C@@H]1NC(=O)[C@H](CC(C)C)N(C)C(=O)[C@H]([C@@H](C)O)NC(=O)[C@H](Cc2ccccc2)N(C)C(=O)C[C@@H](C(=O)N2CCCCC2)NC(=O)[C@H](CC(C)C)N(C)C(=O)[C@H](Cc2c[nH]cn2)NC(=O)[C@H](Cc2ccccc2)N(C)C(=O)[C@H](Cc2ccccc2)N(C)C1=O [DP-905] ([NMeF]T[NMeL]L[NMeF][NMeF]H[NMeL]D-Piperidide; lactam N-9)
Papp at 18 hours, 50 µM, ×10⁻⁶ cm/s: 0.6
--
molecule: CC(C)C[C@H]1C(=O)N[C@@H](COC(C)(C)C)C(=O)N[C@H](C(=O)N2CCCCC2)CC(=O)N(C)CCC(=O)N(C)[C@@H](C)C(=O)N(C)[C@@H](Cc2ccccc2)C(=O)N(C)[C@@H](CC(C)C)C(=O)N[C@@H]([C@@H](C)O)C(=O)N(C)[C@@H](C)C(=O)N1C [DP-269] ([NMeβAla][NMeA][NMeF][NMeL]T[NMeA][NMeL]S(tBu)D-Piperidide; lactam N-9)
Papp at 18 hours, 50 µM, ×10⁻⁶ cm/s: 11

Shifting focus to the molecule that follows.
The molecule CC[C@H](C)[C@@H]1NC(=O)[C@H](Cc2ccccc2)N(C)C(=O)[C@@H](C)NC(=O)C[C@@H](C(=O)N(C)[C@@H](CC(C)C)C(=O)NCC(=O)N(C)[C@@H](CC(C)C)C(=O)N[C@@H](C)C(=O)N2CCCCC2)NC(=O)[C@H](C(C)C)NC(=O)CN(C)C(=O)[C@H]([C@@H](C)O)NC1=O [DP-568] ([dA][NMeF]IT[Sar]VD[NMeL]G[NMeL]A-Piperidide; lactam N-7) showed Papp at 18 hours, 50 µM equal to 4.4

* * *

Assay: PAMPA (parallel artificial membrane permeability assay)
Assay type: in vitro ADME
Settings: PAMPA; membrane permeation rate (Pe); 50 mM MOPSO buffer pH 6.5 with 5.0% glycocholic acid, 37° C., 18 hours; read-out: iPAMPA Pe
Positions of bridges follow the written chain, without caps; N, C: chain ends. Non-standard residues stand in square brackets, D forms with d. Residues, ends and D or L forms follow the SMILES beside them. *: point of attachment. NMeF = CN[C@@H](Cc1ccccc1)C(=O)O; NMeI = CC[C@H](C)[C@H](NC)C(=O)O; NMeL = CN[C@@H](CC(C)C)C(=O)O; NMeS = CN[C@@H](CO)C(=O)O; NMeA = CN[C@@H](C)C(=O)O; Piperidide = C1CCN(*)CC1; dNMeA = CN[C@H](C)C(=O)O; β3hA = C[C@H](N)CC(=O)O; NPrGly = CCCNCC(=O)O; Sar = CNCC(=O)O; tBu = CC(C)(C)*
Entries annotated with measured Papp at 18 hours, 50 µM
I only need the number, in ×10⁻⁶ cm/s, no unit after it.

Some solved cases for reference:
compound: CC(C)C[C@@H]1NC(=O)[C@H](CC(C)C)N(C)C(=O)[C@H](C(C)C)NC(=O)[C@H](CC(C)C)N(C)C(=O)CN(C)C(=O)[C@H](C(C)C)NC(=O)[C@H](CO)N(C)C(=O)[C@H](CC(C)C)N(C)C(=O)C[C@H](C)NC(=O)[C@H](CC(C)C)N(C)C(=O)[C@@H](C)NC1=O [DP-653] (cyclo(L[dA][NMeL][β3hA][NMeL][NMeS]V[Sar][NMeL]V[NMeL]))
Papp at 18 hours, 50 µM (×10⁻⁶ cm/s): 33
//
compound: CCCN1CC(=O)N(C)[C@@H](CC(C)C)C(=O)N[C@@H]([C@@H](C)O)C(=O)N(C)[C@@H](Cc2ccccc2)C(=O)N(C)[C@@H](CC(C)C)C(=O)N(C)[C@@H]([C@@H](C)CC)C(=O)N(C)[C@@H](C)C(=O)N[C@H](C(=O)N2CCCCC2)CC(=O)N(C)CC(=O)N[C@@H](COC(C)(C)C)C1=O [DP-543] ([Sar]S(tBu)[NPrGly][NMeL]T[NMeF][NMeL][NMeI][NMeA]D-Piperidide; lactam N-10)
Papp at 18 hours, 50 µM (×10⁻⁶ cm/s): 28
//
compound: CC(C)C[C@@H]1NC(=O)[C@H](CC(C)C)N(C)C(=O)[C@H](C)N(C)C(=O)[C@H]([C@@H](C)O)NC(=O)[C@H](Cc2ccccc2)N(C)C(=O)[C@@H](C)NC(=O)C[C@@H](C(=O)N2CCCCC2)NC1=O [DP-741] ([dA][NMeF]T[NMeA][NMeL]LD-Piperidide; lactam N-7)
Papp at 18 hours, 50 µM (×10⁻⁶ cm/s): 10
//
compound: C=C1CCC(=O)N[C@@H](CC(C)C)C(=O)N(C)[C@@H]([C@@H](C)CC)C(=O)N(C)[C@@H](CC(C)C)C(=O)NCC(=O)N(C)[C@@H](C)C(=O)N[C@@H](Cc2ccccc2)C(=O)N[C@@H]([C@@H](C)O)C(=O)N(C)[C@@H](CC(C)C)C(=O)N[C@@H](Cc2ccccc2)C(=O)N(C)[C@@H](C(C)C)C(=O)N[C@H](C(=O)N2CCCCC2)Cc2cccc1c2
Papp at 18 hours, 50 µM (×10⁻⁶ cm/s): 1.8

Next up:
Value of measured Papp at 18 hours, 50 µM for the entry CC[C@H](C)[C@@H]1NC(=O)[C@H](C)N(C)C(=O)[C@H]([C@@H](C)O)NC(=O)CN(C)C(=O)[C@H](C)N(C)C(=O)[C@H](C)NC(=O)[C@H](C)N(C)C(=O)[C@@H](C)N(C)C(=O)C[C@@H](C(=O)N(C)[C@@H](Cc2ccccc2)C(=O)N(C)[C@@H](Cc2ccccc2)C(=O)N[C@@H](C)C(=O)N2CCCCC2)NC(=O)[C@H](Cc2ccccc2)N(C)C1=O [DP-508] ([dNMeA][NMeA]A[NMeA][Sar]T[NMeA]I[NMeF]D[NMeF][NMeF]A-Piperidide; lactam N-10) : 2.5

* * *

Test: Metabolic stability in human hepatic microsome
Assay type: in vitro ADME
Conditions: microsomes, pH 7.4; human hepatic microsome, NADPH(+); read-out: CL NADPH(+)
Starred links: 1 amine or outer side, 2 acyl side, 3 side chain; linkers in the order of their positions; H or OH if unused. Positions of bridges follow the written chain, without caps; N, C: chain ends. Non-standard residues stand in square brackets, D forms with d. Residues, ends and D or L forms follow the SMILES beside them. *: point of attachment. Phe(3-(CH2)4CO) = O=C([C@H](Cc1cccc(CCCCC(=O)[*:3])c1)N[*:1])[*:2]; NMeF = CN[C@@H](Cc1ccccc1)C(=O)O; NMeGABA = CN(CCCC(=O)[*:2])[*:1]; NMeI = CC[C@H](C)[C@H](NC)C(=O)O; NMeL = CN[C@@H](CC(C)C)C(=O)O; NMeA = CN[C@@H](C)C(=O)O; Piperidide = C1CCN(*)CC1
property_label: microsomal CLint at 1 uM (µL/min/mg)
Write it as a number; the unit µL/min/mg goes unstated.

molecule: CC[C@H](C)[C@H]1C(=O)N(C)[C@@H](C)C(=O)N(C)[C@@H](Cc2ccccc2)C(=O)N[C@@H]([C@@H](C)O)C(=O)N(C)[C@@H](Cc2ccccc2)C(=O)N(C)[C@@H](CC(C)C)C(=O)N2CCC[C@H]2C(=O)N[C@H](C(=O)N2CCCCC2)Cc2cccc(c2)CCCCC(=O)NCC(=O)N(C)[C@@H](CC(C)C)C(=O)N1C [DP-860] (G[NMeL][NMeI][NMeA][NMeF]T[NMeF][NMeL]P[Phe(3-(CH2)4CO)]-Piperidide; lactam N-10)
result_number: 322

Shifting focus to the molecule that follows.
# microsomal CLint at 1 uM of CC(C)C[C@H]1C(=O)N[C@@H]([C@@H](C)O)C(=O)N(C)[C@@H](C)C(=O)N(C)[C@@H](CC(C)C)C(=O)N(C)[C@@H](Cc2ccccc2)C(=O)N[C@H](C(=O)N2CCCCC2)CC(=O)N(C)CCCC(=O)N(C)[C@@H](C)C(=O)N1C [DP-524] ([NMeGABA][NMeA][NMeL]T[NMeA][NMeL][NMeF]D-Piperidide; lactam N-8) = 162
